Target: human G34 protein (Homo sapiens)
Construct: made in house; host or cells: Sf21 insect cells (baculovirus, pFBIF-G34A)
Sequence (Q8NCR0 36-500): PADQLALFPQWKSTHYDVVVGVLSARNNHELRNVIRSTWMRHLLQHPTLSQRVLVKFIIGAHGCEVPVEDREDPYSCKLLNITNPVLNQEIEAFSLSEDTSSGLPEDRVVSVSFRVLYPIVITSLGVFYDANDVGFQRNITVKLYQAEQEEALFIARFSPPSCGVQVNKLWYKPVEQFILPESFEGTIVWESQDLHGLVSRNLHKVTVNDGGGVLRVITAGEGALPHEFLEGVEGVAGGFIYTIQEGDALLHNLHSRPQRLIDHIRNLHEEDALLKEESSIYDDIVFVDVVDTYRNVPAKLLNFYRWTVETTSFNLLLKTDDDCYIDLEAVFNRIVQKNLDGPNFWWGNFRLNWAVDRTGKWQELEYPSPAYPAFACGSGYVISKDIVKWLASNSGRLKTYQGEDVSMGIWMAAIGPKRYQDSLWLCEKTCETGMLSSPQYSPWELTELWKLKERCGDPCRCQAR
Assay: Acceptor substrate specificity to oligosaccharides
Type: biochemical
Conditions: 50 nmol substrate, HEPES pH 7.4, MnCl2 10 mM, 37° C. 2 hours
Experimental readout: % (radioactivity relative to Bz-β-GlcNAc set to 100%)

Please review the entries below; each comes with its answer.
Compound	Value reported
CC(=O)NC1C(OC2C(O)C(CO)OC(Oc3ccc([N+](=O)[O-])cc3)C2NC(C)=O)OC(CO)C(O)C1O (centres unmarked)	8
CC(=O)N[C@H]1[C@H](OCc2ccccc2)O[C@H](CO)[C@@H](O[C@@H]2O[C@H](CO)[C@@H](O)[C@H](O)[C@H]2NC(C)=O)[C@@H]1O	29
CC(=O)N[C@H]1[C@H](OCc2ccccc2)O[C@H](CO)[C@@H](O)[C@@H]1O	100

[I] CC(=O)N[C@H]1[C@@H](Oc2ccc([N+](=O)[O-])cc2)O[C@H](CO[C@@H]2O[C@H](CO)[C@@H](O)[C@H](O)[C@H]2NC(C)=O)[C@H](O)[C@@H]1O
[II] CC(=O)N[C@H]1[C@H](OC[C@H]2O[C@H](Oc3ccc([N+](=O)[O-])cc3)[C@H](NC(C)=O)[C@@H](O[C@@H]3O[C@H](CO)[C@H](O)[C@H](O)[C@H]3O)[C@H]2O)O[C@H](CO)[C@@H](O)[C@@H]1O
Query: Could you check which of I and II has a smaller value for % (radioactivity relative to Bz-β-GlcNAc set to 100%)? Identify your pick by its label.
Result: I
(I: 19%, II: 185%)
